Data origin, for the record: the supplement of paper PMC8617591

# Test system: Mycobacterium tuberculosis Erdman (autoluminescent)
# method-description: total FIC90 (Loewe) at 90% inhibition, three-drug combination (log2); higher = more antagonistic
# test-parameters: in vitro model: valerate; time point: terminal (~4-5 doublings, model-specific)
Hi there, I'd appreciate the recorded total FIC90 for every entry that follows.
# print the numeric value only

Input: // query total FIC90 value for entry CC[C@@H](CO)NCCN[C@@H](CC)CO [ethambutol] + NNC(=O)c1ccncc1 [isoniazid] + CC(=O)NC[C@H]1CN(c2ccc(N3CCOCC3)c(F)c2)C(=O)O1 [linezolid]
Output: 0.881

Input: // query total FIC90 value for entry CC[C@@H](CO)NCCN[C@@H](CC)CO [ethambutol] + COc1c(N2C[C@@H]3CCCN[C@@H]3C2)c(F)cc2c(=O)c(C(=O)O)cn(C3CC3)c12 [moxifloxacin] + CO[C@H]1/C=C/O[C@@]2(C)Oc3c(C)c(O)c4c(O)c(c(/C=N/N5CCN(C)CC5)c(O)c4c3C2=O)NC(=O)/C(C)=C\C=C\[C@H](C)[C@H](O)[C@@H](C)[C@@H](O)[C@@H](C)[C@H](OC(C)=O)[C@@H]1C [rifampicin]
Output: -0.611

* * *

Hi there, I'd appreciate the recorded AUC25 for every entry that follows.
# System: Mycobacterium tuberculosis Erdman (autoluminescent)
# method-description: AUC25, normalised area under dose response up to IC25 (three-drug combination) (fraction (0-1)); higher = more potent at low dose
# test-parameters: in vitro model: valerate; time point: constant (~7 days, model-specific)

Input: // query AUC25 value for entry COc1nc2ccc(Br)cc2cc1[C@@H](c1ccccc1)[C@@](O)(CCN(C)C)c1cccc2ccccc12 [bedaquiline] + O=[N+]([O-])c1cn2c(n1)OC[C@@H](OCc1ccc(OC(F)(F)F)cc1)C2 [pretomanid] + NC(=O)c1cnccn1 [pyrazinamide]
Output: 0.0952

Input: // query AUC25 value for entry CC(C)/N=c1\cc2n(-c3ccc(Cl)cc3)c3ccccc3nc-2cc1Nc1ccc(Cl)cc1 [clofazimine] + COc1c(N2C[C@@H]3CCCN[C@@H]3C2)c(F)cc2c(=O)c(C(=O)O)cn(C3CC3)c12 [moxifloxacin] + CO[C@H]1/C=C/O[C@@]2(C)Oc3c(C)c(O)c4c(O)c(c(/C=N/N5CCN(C)CC5)c(O)c4c3C2=O)NC(=O)/C(C)=C\C=C\[C@H](C)[C@H](O)[C@@H](C)[C@@H](O)[C@@H](C)[C@H](OC(C)=O)[C@@H]1C [rifampicin]
Output: 0.104

* * *

Hi there, I'd appreciate the recorded AUC25 for every entry that follows.
# Tested on: Mycobacterium tuberculosis Erdman (autoluminescent)
# method-description: AUC25, normalised area under dose response up to IC25 (fraction (0-1)); higher = more potent at low dose
# test-parameters: in vitro model: cholesterol 0.05 mM; time point: constant (~7 days, model-specific)
# print the numeric value only

Input: // query AUC25 value for entry CC(C)/N=c1\cc2n(-c3ccc(Cl)cc3)c3ccccc3nc-2cc1Nc1ccc(Cl)cc1 [clofazimine] + CC[C@@H](CO)NCCN[C@@H](CC)CO [ethambutol]
Output: 0.13

Input: // query AUC25 value for entry CC(C)/N=c1\cc2n(-c3ccc(Cl)cc3)c3ccccc3nc-2cc1Nc1ccc(Cl)cc1 [clofazimine] + CO[C@H]1/C=C/O[C@@]2(C)Oc3c(C)c(O)c4c(O)c(c(/C=N/N5CCN(C)CC5)c(O)c4c3C2=O)NC(=O)/C(C)=C\C=C\[C@H](C)[C@H](O)[C@@H](C)[C@@H](O)[C@@H](C)[C@H](OC(C)=O)[C@@H]1C [rifampicin]
Output: 0.113

Input: // query AUC25 value for entry NNC(=O)c1ccncc1 [isoniazid] + O=[N+]([O-])c1cn2c(n1)OC[C@@H](OCc1ccc(OC(F)(F)F)cc1)C2 [pretomanid]
Output: 0.122

Input: // query AUC25 value for entry COc1nc2ccc(Br)cc2cc1[C@@H](c1ccccc1)[C@@](O)(CCN(C)C)c1cccc2ccccc12 [bedaquiline] + O=[N+]([O-])c1cn2c(n1)OC[C@@H](OCc1ccc(OC(F)(F)F)cc1)C2 [pretomanid]
Output: 0.118
